The measured values listed here are drawn from PubChem BioAssay.

Consider the following compounds and their measured inhibition readings.
- target_or_test_system: Nuclear receptor coactivator 1 (Homo sapiens) (UniProt Q15788)
- Sequence (Q15788 whole entry, looked up): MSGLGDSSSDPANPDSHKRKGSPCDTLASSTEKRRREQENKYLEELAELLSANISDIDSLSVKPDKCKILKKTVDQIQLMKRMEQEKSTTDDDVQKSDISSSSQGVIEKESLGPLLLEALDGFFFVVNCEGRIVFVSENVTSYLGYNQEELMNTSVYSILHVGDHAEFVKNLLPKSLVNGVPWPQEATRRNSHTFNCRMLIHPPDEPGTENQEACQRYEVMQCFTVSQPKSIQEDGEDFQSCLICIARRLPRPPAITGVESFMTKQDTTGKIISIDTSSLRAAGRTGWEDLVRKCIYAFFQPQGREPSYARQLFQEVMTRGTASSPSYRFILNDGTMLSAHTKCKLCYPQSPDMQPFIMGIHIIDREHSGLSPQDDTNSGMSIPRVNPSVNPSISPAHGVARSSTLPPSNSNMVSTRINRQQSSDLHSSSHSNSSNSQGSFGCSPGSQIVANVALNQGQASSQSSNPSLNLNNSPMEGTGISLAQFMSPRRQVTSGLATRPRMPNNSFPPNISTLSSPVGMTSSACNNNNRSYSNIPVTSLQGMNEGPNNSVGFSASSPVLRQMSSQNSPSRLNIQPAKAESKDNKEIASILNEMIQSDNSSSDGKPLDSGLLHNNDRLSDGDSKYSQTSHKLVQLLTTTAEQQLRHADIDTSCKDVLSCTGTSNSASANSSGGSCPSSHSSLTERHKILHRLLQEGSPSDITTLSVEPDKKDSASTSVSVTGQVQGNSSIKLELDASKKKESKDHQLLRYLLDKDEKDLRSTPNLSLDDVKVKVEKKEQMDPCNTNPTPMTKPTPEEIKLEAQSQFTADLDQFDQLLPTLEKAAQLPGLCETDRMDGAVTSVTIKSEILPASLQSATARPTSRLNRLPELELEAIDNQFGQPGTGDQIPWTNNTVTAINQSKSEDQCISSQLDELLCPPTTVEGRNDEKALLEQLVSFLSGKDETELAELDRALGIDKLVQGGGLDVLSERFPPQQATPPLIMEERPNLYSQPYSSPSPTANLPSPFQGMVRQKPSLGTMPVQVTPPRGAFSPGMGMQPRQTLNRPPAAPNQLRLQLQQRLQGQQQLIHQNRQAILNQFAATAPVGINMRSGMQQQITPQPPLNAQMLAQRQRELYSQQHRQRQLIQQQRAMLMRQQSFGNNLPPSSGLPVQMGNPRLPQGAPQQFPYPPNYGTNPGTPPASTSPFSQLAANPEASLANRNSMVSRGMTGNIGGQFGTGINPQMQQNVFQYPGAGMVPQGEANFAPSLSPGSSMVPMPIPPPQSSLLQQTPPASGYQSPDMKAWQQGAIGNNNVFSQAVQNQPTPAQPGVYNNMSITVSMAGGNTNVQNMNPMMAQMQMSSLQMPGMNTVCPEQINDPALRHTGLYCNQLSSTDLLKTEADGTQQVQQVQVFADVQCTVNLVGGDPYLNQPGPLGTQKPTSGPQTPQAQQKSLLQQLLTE
- test_description: SRC1 coactivator transcriptional activity inhibitors, confirmation, cell-based, luminescence, quadruplicate (AID 588820);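 also: 0% = DMSO wells and 100% = gossypol 36 µM treated wells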
- test_parameters: HEK293 GAL4-SRC1 luciferase reporter, at 3.6 µM, active compounds read high
The figure you give is taken to be in %; do not add the unit.

>  <compound>
COc1cc(NC(=O)c2cccc3c(-c4cnn(C)c4)coc23)cc(OC)c1OC

>  <quantitative_result>
-26.3

$$$$
>  <compound>
CC[n+]1ccccc1/C=C1\Sc2ccc(C)cc2N1C

>  <quantitative_result>
23.8

$$$$
>  <compound>
O=c1cc(-c2ccccc2Cl)oc2c([N+](=O)[O-])c(O)cc(O)c12

>  <quantitative_result>
51.9

$$$$
>  <compound>
COc1ccc(Nc2cc(C)nc(NCc3ccccc3)n2)cc1

>  <quantitative_result>
12.3

$$$$
>  <compound>
COc1ccccc1-[n+]1c(C)cc(/C=C2\Sc3ccccc3N2C)cc1C

>  <quantitative_result>
8.54

$$$$
>  <compound>
COc1ccc(-c2nnc(NC(=O)CSc3ccccc3)s2)cc1OC

>  <quantitative_result>
1.2

$$$$
>  <compound>
O=C(N/N=C/c1c(O)ccc2ccccc12)c1cccc(C(F)(F)F)c1

>  <quantitative_result>
60.8

$$$$
>  <compound>
COc1ccc(CCNC(=O)C(=O)NCC2CCCN2S(=O)(=O)c2ccccc2)cc1OC (configuration not stated)

>  <quantitative_result>
-20.3

$$$$

Sure, the documented inhibition for `O=c1cnnc(N/N=C/c2ccccn2)[nH]1` is 76

Sure, the documented inhibition for `Cc1nc2c(-c3ccc(Cl)cc3)cnn2c(N)c1-c1ccc(F)cc1` is -12

Short answer for `CCCCN1C=CC(=C2C(=O)c3ccccc3C2=O)C=C1` : inhibition was -41.3

// recorded inhibition for `C#CCN(C[C@@H]1[C@@H](OC(=O)NCCCCCC)[C@@H](OC(=O)NCCCCCC)Cn2c(=O)ccc(=O)n21)S(=O)(=O)c1ccc(C)cc1` : 23.8

The compound listed as `CCN(CC)CCNC(=O)CCN1N=C(c2ccccc2)CCC1=O` shows inhibition equal to -4.6

Consider `Cc1cccc(-n2ncc3c(N(C)C4CCCCC4)ncnc32)c1` . Its measured inhibition is 28.5

// field: inhibition; key: `Cc1ccc(C(=O)NCCn2cc(SCC(=O)Nc3cc(C)on3)c3ccccc32)cc1` ; value = 0.49

Note to self: inhibition recorded for `COC(=O)Cc1ccc(NC(=O)c2ccc(C(C)(C)C)cc2)cc1` was 43.4

For `O=C(COc1ccc(S(=O)(=O)Nc2ccccc2)cc1)NCc1ccncc1` the compound record lists inhibition as -7.07

Note to self: inhibition recorded for `Cc1ccc(Cc2c(-c3ccco3)nc3c4ccccc4ccn23)cc1` was -81.9

// sample `Cc1cc(Sc2nnc(/N=C/N(C)C)s2)c2ccccc2n1` , its inhibition was 2.4

Quick note, inhibition for `O=C(CNS(=O)(=O)Cc1ccccc1)NNc1ccccc1` landed at 12.8

Lab note: measured inhibition of CCCCC(=O)NC(c1cccc([N+](=O)[O-])c1)c1ccc2cccnc2c1O (configuration not stated) was 13.2

Lab note: CC(=O)C1=C(C)NC2=C(C(=O)CC(C)(C)C2)C1C (configuration not stated) gave inhibition of 28

The measured inhibition associated with `COc1ccc(-c2coc3c(C(=O)NCc4ccc(OC)c(OC)c4)cccc23)c(C)c1` reads -32
